experiment: Tmax in Balb/c mouse at 1 mg/kg, iv; format: ADME, organism-based; design: dose 1 mg/kg, route intravenous; settings: in vivo
Reported property: Tmax (min)
Hi! Could you send only the number? It should be in min, unit omitted.

Recorded Tmax of Cc1cc2oc(=O)cc(-c3cccc(N)c3)c2c(C)c1-c1ccc(CN2CCOCC2)cc1.Cl.Cl , please.
4.98

###

assay: AUC (0 to infinity) in Balb/c mouse at 1 mg/kg, iv; type: ADME, organism-based; set-up: time infinity, dose 1 mg/kg, route intravenous; settings: plasma
Reported property: AUC(0-inf) (ng·h/mL)
Hi! Could you send only the number? It should be in ng·h/mL, unit omitted.

Recorded AUC(0-inf) of Cc1cc2oc(=O)cc(-c3cccc(N)c3)c2c(C)c1-c1ccc(CN2CCOCC2)cc1.Cl.Cl , please.
536

###

test: Tmax in Balb/c mouse at 10 mg/kg, po; assay type: ADME, organism-based; design: dose 10 mg/kg, route oral; settings: in vivo
Reported property: Tmax
Your reply should be a number followed by the unit it is expressed in.

Recorded Tmax of Cc1cc2oc(=O)cc(-c3cccc(N)c3)c2c(C)c1-c1ccc(CN2CCOCC2)cc1.Cl.Cl , please.
2 h

###

assay: MRTlast in Balb/c mouse at 10 mg/kg, po; format: ADME, organism-based; design: dose 10 mg/kg, route oral; conditions: in vivo
Reported property: MRT last (h)
Hi! Could you send only the number? It should be in h, unit omitted.

Recorded MRT last of Cc1cc2oc(=O)cc(-c3cccc(N)c3)c2c(C)c1-c1ccc(CN2CCOCC2)cc1.Cl.Cl , please.
4.31

###

assay: Initial plasma concentration in Balb/c mouse at 1 mg/kg, iv; type: ADME, organism-based; parameters: dose 1 mg/kg, route intravenous
Reported property: C0 (ng/mL)
Hi! Could you send only the number? It should be in ng/mL, unit omitted.

Recorded C0 of Cc1cc2oc(=O)cc(-c3cccc(N)c3)c2c(C)c1-c1ccc(CN2CCOCC2)cc1.Cl.Cl , please.
851

###

assay: Metabolic stability of the compound in human plasma assessed as compound remaining at 1 uM after 5 hrs; type: ADME, cell-free; details: read-out: Stability
Reported property: remaining at 5 h, 1 µM (%)
Hi! Could you send only the number? It should be in %, unit omitted.

Here's what some known entries look like.
Cc1cc2oc(=O)cc(-c3cccc(N)c3)c2c(C)c1-c1ccc(CN2CCOCC2)cc1 = 88
Cc1cc2oc(=O)cc(-c3ccccc3)c2c(C)c1-c1ccc(CN2CCOCC2)cc1 = 84.4
Cc1cc2oc(=O)cc(-c3ccccc3)c2c(C)c1-c1ccc(CO)cc1 = 80.3

// next entry
Recorded remaining at 5 h, 1 µM of Cc1cc2oc(=O)cc(-c3ccccc3)c2c(C)c1-c1ccncc1 , please.
83.5

###

assay: AUClast in Balb/c mouse at 1 mg/kg, iv; type: ADME, organism-based; parameters: time 0 - last, dose 1 mg/kg, route intravenous; settings: plasma
Reported property: AUC(0-t) (ng·h/mL)
Hi! Could you send only the number? It should be in ng·h/mL, unit omitted.

Recorded AUC(0-t) of Cc1cc2oc(=O)cc(-c3cccc(N)c3)c2c(C)c1-c1ccc(CN2CCOCC2)cc1.Cl.Cl , please.
513
